# target-or-system: Neuronal acetylcholine receptor subunit alpha-7 (Homo sapiens, UniProt P36544)
# Sequence (P36544 whole entry): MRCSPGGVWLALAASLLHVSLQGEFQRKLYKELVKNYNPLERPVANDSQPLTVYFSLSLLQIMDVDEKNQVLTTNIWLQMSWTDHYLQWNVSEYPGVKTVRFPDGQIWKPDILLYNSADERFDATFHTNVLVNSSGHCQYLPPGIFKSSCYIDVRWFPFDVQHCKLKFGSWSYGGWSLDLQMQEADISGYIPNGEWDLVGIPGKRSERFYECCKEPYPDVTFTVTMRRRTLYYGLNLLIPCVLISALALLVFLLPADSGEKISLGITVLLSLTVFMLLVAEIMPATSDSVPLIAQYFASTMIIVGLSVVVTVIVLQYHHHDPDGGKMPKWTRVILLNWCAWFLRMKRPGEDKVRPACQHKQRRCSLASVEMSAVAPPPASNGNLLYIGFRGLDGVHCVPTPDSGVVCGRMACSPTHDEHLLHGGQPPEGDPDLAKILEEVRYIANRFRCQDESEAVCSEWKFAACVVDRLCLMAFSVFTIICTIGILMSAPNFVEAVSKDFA
# test-summary: Inhibition of human alpha7 nAChR expressed in Xenopus laevis oocytes assessed as decrease in ACh-induced channel currents at -60 mV holding potential by two electrode voltage clamp assay
recorded-metric: pIC50
Numbers only, as −log10 of the molar value.

substance-smiles	pIC50
COc1ccccc1-c1cc(N(Cc2ccccn2)Cc2ccccn2)nc(N)n1	6.43

Provide the reported pIC50 of each entry below, same order.
1. COc1ccc(-c2cc(N(Cc3ccccn3)Cc3ccccn3)nc(N)n2)c(F)c1
2. COc1ccc(-c2cc(N(Cc3ccccn3)Cc3ccccn3)ncn2)c(F)c1
3. COc1ccccc1-c1cc(N(Cc2ccccn2)Cc2ccccn2)ncn1

6.33
5.89
5.46

###

# target-or-system: Neuronal acetylcholine receptor; alpha4/beta2 (Homo sapiens) (UniProt P17787+P43681)
# test-summary: Antagonist activity at alpha4beta2 nAChR (unknown origin) transfected in HEK cells assessed as decrease in epibatidine-induced intracellular calcium release incubated for 30 mins by FRET assay
// boundary case: Ka equal to 4 µM maps to n; strictly smaller maps to y

Would you please look over these solved cases?
compound	target-or-system	label-class
CSc1nc(-c2ccsc2)cc(N(Cc2ccccn2)Cc2ccccn2)n1	Neuronal acetylcholine receptor; alpha4/beta2 (Homo sapiens) (UniProt P17787+P43681)	y
Nc1nc(-c2ccsc2)cc(N(Cc2ccccn2)Cc2ccccn2)n1	Neuronal acetylcholine receptor; alpha4/beta2 (Homo sapiens) (UniProt P17787+P43681)	n
COc1ccc(-c2cc(N(Cc3ccccn3)Cc3ccccn3)ncn2)c(F)c1	Neuronal acetylcholine receptor; alpha4/beta2 (Homo sapiens) (UniProt P17787+P43681)	y
c1ccc(CN(Cc2ccccn2)c2cc(-c3ccsc3)ncn2)nc1	Neuronal acetylcholine receptor; alpha4/beta2 (Homo sapiens) (UniProt P17787+P43681)	n
COc1cc(F)ccc1-c1cc(N(Cc2ccccn2)Cc2ccccn2)nc(N)n1	Neuronal acetylcholine receptor; alpha4/beta2 (Homo sapiens) (UniProt P17787+P43681)	n

Could you please tell me whether Ka recorded for COc1ccccc1-c1cc(N(Cc2ccccn2)Cc2ccccn2)nc([S+](C)[O-])n1 (stereo not given) is less than 4 µM?
n

Could you please tell me whether Ka recorded for COc1cccc(OC)c1-c1cc(N(Cc2ccccn2)Cc2ccccn2)nc(N)n1 is less than 4 µM?
n

Could you please tell me whether Ka recorded for CSc1ccccc1-c1cc(N(Cc2ccccn2)Cc2ccccn2)nc(N)n1 is less than 4 µM?
n

Could you please tell me whether Ka recorded for FC(F)(F)c1nc(-c2ccsc2)cc(N(Cc2ccccn2)Cc2ccccn2)n1 is less than 4 µM?
y

Could you please tell me whether Ka recorded for COc1ccc(-c2cc(N(Cc3ccccn3)Cc3ccccn3)nc(N)n2)c(OC)c1 is less than 4 µM?
y

###

# target-or-system: Neuronal acetylcholine receptor subunit alpha-7 (Homo sapiens, UniProt P36544)
# test-summary: Agonist activity at human alpha7 nAChR transfected in HEK cells assessed as increase in intracellular calcium release incubated for 30 mins in presence of PNU-120596 by FRET assay
# Type: cell-based
// boundary case: EC50 equal to 2000 nM maps to no; strictly smaller maps to yes

Would you please look over these solved cases?
compound	target-or-system	label-class
Nc1nc(-c2ccccc2Cl)cc(N(Cc2ccccn2)Cc2ccccn2)n1	Neuronal acetylcholine receptor subunit alpha-7 (Homo sapiens, UniProt P36544)	yes
COc1ccccc1-c1cc(N(Cc2ccccn2)Cc2ccccn2)nc(SC)n1	Neuronal acetylcholine receptor subunit alpha-7 (Homo sapiens, UniProt P36544)	yes
COc1ncccc1-c1cc(N(Cc2ccccn2)Cc2ccccn2)nc(N)n1	Neuronal acetylcholine receptor subunit alpha-7 (Homo sapiens, UniProt P36544)	yes
CC(C)COc1ccccc1-c1cc(N(Cc2ccccn2)Cc2ccccn2)nc(N)n1	Neuronal acetylcholine receptor subunit alpha-7 (Homo sapiens, UniProt P36544)	yes
COc1ccccc1-c1cc(N(Cc2ccccn2)Cc2ccccn2)nc(S(C)(=O)=O)n1	Neuronal acetylcholine receptor subunit alpha-7 (Homo sapiens, UniProt P36544)	yes
COc1ccccc1-c1cc(N(Cc2ccccn2)Cc2ccccn2)nc([S+](C)[O-])n1 (stereo not given)	Neuronal acetylcholine receptor subunit alpha-7 (Homo sapiens, UniProt P36544)	yes
CSc1nc(-c2ccsc2)cc(N(Cc2ccccn2)Cc2ccccn2)n1	Neuronal acetylcholine receptor subunit alpha-7 (Homo sapiens, UniProt P36544)	yes
c1ccc(CN(Cc2ccccn2)c2cc(-c3ccsc3)ncn2)nc1	Neuronal acetylcholine receptor subunit alpha-7 (Homo sapiens, UniProt P36544)	no
COc1cccc(OC)c1-c1cc(N(Cc2ccccn2)Cc2ccccn2)nc(N)n1	Neuronal acetylcholine receptor subunit alpha-7 (Homo sapiens, UniProt P36544)	no

Could you please tell me whether EC50 recorded for c1ccc(CN(Cc2ccccn2)c2cc(N3CCOCC3)ncn2)nc1 is less than 2000 nM?
no
